test system: HDQ-P1; assay: normalised response (% of control), CellTox Green; higher = less cell death (100 = DMSO, 0 = benzethonium chloride kill control); details: incubation time: 72 h
Quick reference for normalised response among some compounds
OBSERVED PROPERTY: normalised response

1. COc1cc2c(NC3CCN(C(C)C)CC3)nc(N3CCC(F)(F)CC3)nc2cc1OCCCN1CCCC1 [UNC0642] (10000 nM)
93.1%
2. O=C(Nc1ccncc1)C(=O)c1cn(Cc2ccc(Cl)cc2)c2ccccc12 [Indibulin] (10000 nM)
69.6%
3. CCc1c2c(nc3ccc(OC(=O)N4CCC(N5CCCCC5)CC4)cc13)-c1cc3c(c(=O)n1C2)COC(=O)[C@]3(O)CC [Irinotecan] (10000 nM)
74.4%
4. CO[C@H]1C[C@@H]2CC[C@@H](C)[C@@](O)(O2)C(=O)C(=O)N2CCCC[C@H]2C(=O)O[C@H]([C@H](C)C[C@@H]2CC[C@@H](OP(C)(C)=O)[C@H](OC)C2)CC(=O)[C@H](C)/C=C(\C)[C@@H](O)[C@@H](OC)C(=O)[C@H](C)C[C@H](C)/C=C/C=C/C=C/1C [Ridaforolimus] (100 nM)
70.1%
5. CN(C)CCOc1ccc(/C(=C(/CCCl)c2ccccc2)c2ccccc2)cc1 [Toremifene] (10000 nM)
103%
